Listed variants paired with reported polymerase ribozyme fitness (log ratio)
B1: TPR t1 (parent)
chain: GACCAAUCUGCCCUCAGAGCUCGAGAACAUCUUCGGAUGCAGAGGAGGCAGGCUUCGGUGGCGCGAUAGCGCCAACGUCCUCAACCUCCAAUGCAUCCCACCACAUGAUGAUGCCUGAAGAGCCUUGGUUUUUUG

- Variants of: B1
- EXPERIMENT SUMMARY: polymerase ribozyme fitness, log enrichment relative to wild type (log ratio); higher = more active; in vitro selection for triplet polymerase activity
METRIC: polymerase ribozyme fitness (log ratio)

INSERT INTO measurements (mutant_name, metric, quantitative_readout) VALUES
  ('C3U G19A C70U A111G G120U', 'polymerase ribozyme fitness (log ratio)', -3.71),
  ('G48A G63U C82G A91U G117C', 'polymerase ribozyme fitness (log ratio)', -5.43),
  ('U96A G120C', 'polymerase ribozyme fitness (log ratio)', 0.228),
  ('G39C U54A', 'polymerase ribozyme fitness (log ratio)', -0.125),
  ('A68U G117C', 'polymerase ribozyme fitness (log ratio)', -6.92),
  ('A18U A29U U54G U78C C89G C114G', 'polymerase ribozyme fitness (log ratio)', -3.24),
  ('C62A G120C', 'polymerase ribozyme fitness (log ratio)', -0.534),
  ('A6U C8G C73G C88A U92G C98A G113U', 'polymerase ribozyme fitness (log ratio)', -6.38),
  ('U30G A43C C101A U106C C115U U132A', 'polymerase ribozyme fitness (log ratio)', -7.22),
  ('A18C C124U', 'polymerase ribozyme fitness (log ratio)', -1.22),
  ('C72G U92A', 'polymerase ribozyme fitness (log ratio)', -3.94),
  ('C20A A46U C72G', 'polymerase ribozyme fitness (log ratio)', -4.27),
  ('C40A G45U A90G', 'polymerase ribozyme fitness (log ratio)', -1.17),
  ('C80U G120U U129G', 'polymerase ribozyme fitness (log ratio)', -0.816),
  ('G60A C102A G120C U132C', 'polymerase ribozyme fitness (log ratio)', -1.03),
  ('C12U G39A C72A A74G C79U C80G', 'polymerase ribozyme fitness (log ratio)', -5.3),
  ('C11U C49A U55C G60A U87A C88G A95C A121U', 'polymerase ribozyme fitness (log ratio)', -2.74),
  ('A16U G42U C53G G71A G120A', 'polymerase ribozyme fitness (log ratio)', -2.89),
  ('G47A G117C', 'polymerase ribozyme fitness (log ratio)', -4.01),
  ('A24G G61U', 'polymerase ribozyme fitness (log ratio)', -1.44),
  ('C20U C73U G110U G120U A121G', 'polymerase ribozyme fitness (log ratio)', -3),
  ('C20A G61A', 'polymerase ribozyme fitness (log ratio)', -2.67),
  ('C73U A90G A121C', 'polymerase ribozyme fitness (log ratio)', 2.05),
  ('U33A G47A A121U', 'polymerase ribozyme fitness (log ratio)', -3.55),
  ('C62U C76G A83U C89G U116C U130G', 'polymerase ribozyme fitness (log ratio)', -2.99),
  ('A16C C56G G77U C115G', 'polymerase ribozyme fitness (log ratio)', -3.78),
  ('C28G G42C G52C G69U G107A A108G C124G', 'polymerase ribozyme fitness (log ratio)', -7.26),
  ('U9G U21A C97A', 'polymerase ribozyme fitness (log ratio)', -4.03),
  ('C34U C40U G42A A43G C104A U109A G135A', 'polymerase ribozyme fitness (log ratio)', -4.93),
  ('C101U G110C', 'polymerase ribozyme fitness (log ratio)', -3.42),
  ('G48C C62A G63U A121G', 'polymerase ribozyme fitness (log ratio)', -4.74),
  ('G71C U130G', 'polymerase ribozyme fitness (log ratio)', -1.76),
  ('C12U A43C A90U', 'polymerase ribozyme fitness (log ratio)', -0.274),
  ('U9A C73U G117A', 'polymerase ribozyme fitness (log ratio)', 0.559),
  ('C11G G36A', 'polymerase ribozyme fitness (log ratio)', 0.396),
  ('U14C G51U C104U', 'polymerase ribozyme fitness (log ratio)', -4.54),
  ('C11G A50U A66G U87C C115U A118C', 'polymerase ribozyme fitness (log ratio)', -6.65),
  ('G45U C70U C85U C89A C104U', 'polymerase ribozyme fitness (log ratio)', -5.61),
  ('C40U A83G G128A U129G', 'polymerase ribozyme fitness (log ratio)', -3.53),
  ('C11U C53U C72U C82G C123G', 'polymerase ribozyme fitness (log ratio)', -0.853),
  ('C80A C124A', 'polymerase ribozyme fitness (log ratio)', -0.56),
  ('U7C C8A A27C C97U', 'polymerase ribozyme fitness (log ratio)', -2.64),
  ('C11U G127U', 'polymerase ribozyme fitness (log ratio)', -2),
  ('A5U C62G', 'polymerase ribozyme fitness (log ratio)', -1.69),
  ('A84C C88A', 'polymerase ribozyme fitness (log ratio)', -0.593),
  ('C12G G113A', 'polymerase ribozyme fitness (log ratio)', -0.4);
